Source of measurements: ChEMBL document CHEMBL1131530

# target: Dihydrofolate reductase (Pneumocystis carinii)
# Sequence (P16184 whole entry): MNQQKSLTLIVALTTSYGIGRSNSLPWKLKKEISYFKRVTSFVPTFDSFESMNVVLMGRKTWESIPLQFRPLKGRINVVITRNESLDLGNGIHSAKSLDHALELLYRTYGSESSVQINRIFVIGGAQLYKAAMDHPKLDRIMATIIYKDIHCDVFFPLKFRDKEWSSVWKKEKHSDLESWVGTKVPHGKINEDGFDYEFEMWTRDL
pIC50: −log10 of the molar value.
Would you mind telling me the reported pIC50 of each entry?

These recorded examples may help you get a feel for the data.
If you can, please state the reported pIC50 value of Nc1nc(N)c2c3c(oc2n1)CN(Cc1ccccc1)CC3 .
< 5.05

If you can, please state the reported pIC50 value of COc1cc(CN2CCc3c(oc4nc(N)nc(N)c34)C2)cc(OC)c1 .
< 4.64

Now take the following compound into account.
If you can, please state the reported pIC50 value of COc1cc(CN2CCc3c(oc4nc(N)nc(N)c34)C2)cc(OC)c1OC .
< 4.46
